Biological target: beta-catenin/TCF4 engagement (Homo sapiens)
Construct: expressed in transfected cells; host or cells: HEK293
Assay: Nano-BRET target engagement assay (B-cat-Halo & TCF4-Luc in HEK293 cells)
Type: cell-based
Settings: absolute IC50; read-out: NanoBRET Abs IC50

| compound | IC50 [µM] |
| --- | --- |
| CCNC(=O)[C@H](CCC(N)=O)NC(=O)[C@H](Cc1csc2ccccc12)NC(=O)[C@H](Cc1ccsc1)NC(=O)[C@]12CCN(C1)C(=O)OCCCC=CCCCC1(CCCC=CC[C@]3(CCCN3C(C)=O)C(=O)N[C@@H](CC(=O)O)C(=O)N[C@@H](CC(C)(C)C)C(=O)N1)C(=O)N[C@@H](CC(=O)O)C(=O)N[C@@H](CN(CC(=O)O)CC(F)(F)F)C(=O)N[C@@H](C)C(=O)N[C@@H](C)C(=O)N[C@@H](Cc1ccccc1)C(=O)N[C@@H](CC(C)C)C(=O)N2 (stereo partly shown) | 9.7 |

###

// CHI Log D lookup, one value per entry
Assay: CHI Log D procedure
Format: physicochemical
Conditions: pH 7.4
measurementType: CHI Log D

| molecule | assayValue |
| --- | --- |
| CC(=O)N1CCC[C@]12CC=CCCCC1(CCCC=CCCCCCC[C@@](C)(C(=O)N[C@@H](Cc3ccccc3)C(=O)N[C@@H](Cc3csc4ccccc34)C(=O)N[C@@H](Cc3c[nH]cn3)C(N)=O)NC(=O)[C@H](CCC(N)=O)NC(=O)[C@H](Cc3ccccc3)NC(=O)[C@H](C)NC(=O)[C@H](C)NC(=O)[C@H](CC(=O)O)NC(=O)[C@H](CC(=O)O)NC1=O)NC(=O)[C@H](CC(C)C)NC(=O)[C@H](CC(=O)O)NC2=O (some centres unmarked) [I-560] | 2.391 |
| CC(=O)N1CCC[C@]12CC=CCCCC1(CCCC=CCCCCCC[C@@](C)(C(=O)N[C@@H](Cc3ccccc3)C(=O)N[C@@H](Cc3c[nH]c4ccccc34)C(=O)N[C@@H](CCC(N)=O)C(N)=O)NC(=O)[C@H](C(C)C)NC(=O)[C@H](Cc3ccccc3)NC(=O)[C@H](C)NC(=O)[C@H](C)NC(=O)[C@H](CCC(=O)O)NC(=O)[C@H](CCc3ccccc3)NC1=O)NC(=O)[C@H](C)NC(=O)[C@H](CC(=O)O)NC2=O (some centres unmarked) [I-197] | 3.809 |

###

Biological target: full-length B-Catenin (Uniprot ID P35222) (Homo sapiens)
Construct: 65 nM full-length B-Catenin (Uniprot ID P35222)
Sequence (P35222 1-781): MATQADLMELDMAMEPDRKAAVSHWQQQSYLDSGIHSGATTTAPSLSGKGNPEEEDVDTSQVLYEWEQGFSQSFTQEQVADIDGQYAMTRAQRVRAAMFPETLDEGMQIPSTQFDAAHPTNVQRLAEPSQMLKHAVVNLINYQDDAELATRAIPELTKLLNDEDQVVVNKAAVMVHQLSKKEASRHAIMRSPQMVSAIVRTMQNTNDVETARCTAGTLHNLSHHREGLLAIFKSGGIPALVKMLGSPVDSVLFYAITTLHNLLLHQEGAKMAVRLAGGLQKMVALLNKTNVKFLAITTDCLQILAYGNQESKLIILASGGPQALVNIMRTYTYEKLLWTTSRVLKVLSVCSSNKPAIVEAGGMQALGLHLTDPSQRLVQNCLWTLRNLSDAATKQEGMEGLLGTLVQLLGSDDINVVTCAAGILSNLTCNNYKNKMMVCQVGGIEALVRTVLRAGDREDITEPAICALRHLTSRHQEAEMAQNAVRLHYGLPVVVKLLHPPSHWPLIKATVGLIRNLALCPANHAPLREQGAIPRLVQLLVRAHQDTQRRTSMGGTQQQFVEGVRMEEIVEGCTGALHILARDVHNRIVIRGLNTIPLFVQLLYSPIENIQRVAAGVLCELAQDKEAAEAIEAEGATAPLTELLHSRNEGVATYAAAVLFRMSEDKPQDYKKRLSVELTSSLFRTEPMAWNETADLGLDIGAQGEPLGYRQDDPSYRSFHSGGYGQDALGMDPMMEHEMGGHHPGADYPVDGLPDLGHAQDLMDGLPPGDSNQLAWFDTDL
Assay: Alphascreen binding assay (beta-catenin / biotin-TCF4 10-53)
Listing of entries alongside the reported EC50.

| compound | EC50 |
| --- | --- |
| CC(=O)N1CCC[C@]12CC=CCCCC1(CCCC=CCCCCCC[C@@](C)(C(=O)N[C@@H](Cc3ccccc3)C(=O)N[C@@H](Cc3c[nH]c4ccccc34)C(=O)N[C@@H](CCC(N)=O)C(N)=O)NC(=O)[C@H](C(C)C)NC(=O)[C@H](Cc3ccccc3)NC(=O)[C@H](C)NC(=O)[C@H](C)NC(=O)[C@H](CCC(=O)O)NC(=O)[C@H](CC(=O)O)NC1=O)NC(=O)[C@H](C)NC(=O)[C@H](Cc1ccccc1)NC2=O (some centres unmarked) [I-201] | 6.16 µM |
| CC[C@H](C)[C@@H]1NC(=O)[C@H](CC(=O)O)NC(=O)[C@]2(CC=CCCCC3(CCCC=CCOC(=O)N(C)CCC[C@@](C)(C(=O)N[C@@H](Cc4ccccc4)C(=O)N[C@@H](Cc4c[nH]c5ccccc45)C(=O)N[C@@H](Cc4c[nH]cn4)C(N)=O)NC(=O)[C@H](CCC(N)=O)NC(=O)[C@H](Cc4ccccc4)NC(=O)[C@H](C)NC(=O)[C@H](C)NC(=O)[C@H](CC(=O)O)NC(=O)[C@H](CC(=O)O)NC3=O)NC1=O)CCCN2C(C)=O (some centres unmarked) [I-189] | 0.156 µM |
| CC(=O)N[C@@H](Cc1ccccc1)C(=O)N[C@@H](CC(=O)O)C(=O)N[C@@H](C)C(=O)N[C@]1(C)CCCCCC=CCOC(=O)N2CC[C@@](C(=O)N[C@@H](Cc3ccccc3)C(=O)N[C@@H](Cc3c[nH]c4ccccc34)C(=O)N[C@@H](CCC(N)=O)C(N)=O)(C2)NC(=O)[C@H](C(C)C)NC(=O)[C@H](Cc2ccccc2)NC(=O)[C@H](C)NC(=O)[C@H](C)NC(=O)[C@H](CC(=O)O)NC(=O)[C@H](CC(=O)O)NC1=O [I-31] | 7.22 µM |
| CC(=O)N[C@@H](Cc1ccccc1)C(=O)N[C@@H](CC(=O)O)C(=O)N[C@@H](C)C(=O)N[C@]1(C)CCCCCCC=CCOC(=O)N2CC[C@@](C(=O)N[C@@H](Cc3ccccc3)C(=O)N[C@@H](Cc3c[nH]c4ccccc34)C(=O)N[C@@H](CCC(N)=O)C(N)=O)(C2)NC(=O)[C@H]([C@@H](C)O)NC(=O)[C@H](Cc2ccccc2)NC(=O)[C@H](C)NC(=O)[C@H](C)NC(=O)[C@H](CC(=O)O)NC(=O)[C@H](CC(=O)O)NC1=O [I-222] | 6.58 µM |
| CC(=O)N1CCC[C@]12CC=CCCCC1(CCCC=CCCCCCC[C@@](C)(C(=O)N[C@@H](Cc3ccccc3)C(=O)N[C@@H](Cc3c[nH]c4ccccc34)C(=O)N[C@@H](CCC(N)=O)C(N)=O)NC(=O)[C@H](C(C)C)NC(=O)[C@H](Cc3ccccc3)NC(=O)[C@H](C)NC(=O)[C@H](C)NC(=O)[C@H](Cc3ccc(N)cc3)NC(=O)[C@H](CC(=O)O)NC1=O)NC(=O)[C@H](C)NC(=O)[C@H](CC(=O)O)NC2=O (some centres unmarked) [I-324] | 1.75 µM |
